- SYSTEM TESTED: SIRT1 (Homo sapiens, UniProt Q96EB6)
- Sequence (Q96EB6 whole entry): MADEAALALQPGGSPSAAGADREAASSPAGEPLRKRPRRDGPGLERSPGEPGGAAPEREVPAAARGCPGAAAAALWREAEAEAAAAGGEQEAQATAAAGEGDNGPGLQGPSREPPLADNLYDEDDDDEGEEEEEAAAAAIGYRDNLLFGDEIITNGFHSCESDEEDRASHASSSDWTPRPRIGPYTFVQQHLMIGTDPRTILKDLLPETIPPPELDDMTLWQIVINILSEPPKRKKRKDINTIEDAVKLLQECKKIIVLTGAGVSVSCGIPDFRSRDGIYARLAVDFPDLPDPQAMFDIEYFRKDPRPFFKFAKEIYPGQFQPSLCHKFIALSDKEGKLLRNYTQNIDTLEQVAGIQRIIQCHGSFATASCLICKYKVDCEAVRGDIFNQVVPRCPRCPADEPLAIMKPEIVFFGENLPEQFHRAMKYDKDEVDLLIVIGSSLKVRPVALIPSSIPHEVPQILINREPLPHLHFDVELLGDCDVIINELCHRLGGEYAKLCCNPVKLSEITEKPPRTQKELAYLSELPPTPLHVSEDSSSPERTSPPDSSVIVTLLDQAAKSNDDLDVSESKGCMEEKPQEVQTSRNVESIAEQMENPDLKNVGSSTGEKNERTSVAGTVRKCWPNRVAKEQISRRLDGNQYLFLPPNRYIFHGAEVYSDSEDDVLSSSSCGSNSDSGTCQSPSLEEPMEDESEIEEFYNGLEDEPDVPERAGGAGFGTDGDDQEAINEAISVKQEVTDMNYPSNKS
- EXPERIMENT: Mass spectrometry based assay to identify modulators of SIRT1 activity (deacetylation of p53-based acetylated peptide substrate)
- Assay type: biochemical
- DETAILS: 25 min, SIRT1 activation, read-out: % FOLD ACT. (percent maximum fold activation)
Reported Emax values follow for various compounds

INSERT INTO assay_data (smiles_str, experimental_result) VALUES
  ('Cc1cc(NC(=O)N2CCOc3c(N(C)C)nc(-c4cccc(F)c4)nc32)cc(C)n1', '≤ 200%'),
  ('CCN1CCCN(C(=O)Nc2cccnc2)c2nc(-c3cccc(Cl)c3)ccc21', '> 200%'),
  ('Cc1cc(C)nc(NC(=O)N2CCOc3cnc(-c4cccc(C(F)(F)F)c4)nc32)c1', '≤ 200%');

Fill in the blank: the reported Emax of CCN1CCCN(C(=O)Nc2ccncc2)c2nc(-c3cccc(Cl)c3)ccc21 is ____. > 200%

----------
- SYSTEM TESTED: SIRT1 (Homo sapiens, UniProt Q96EB6)
- EXPERIMENT: Mass spectrometry based assay to identify modulators of SIRT1 activity (deacetylation of p53-based acetylated peptide substrate)
- Type: biochemical
- DETAILS: SIRT1 activation
OBSERVABLE: EC1.5

INSERT INTO measurements (smiles_str, experimental_result) VALUES
  ('Cc1ccc(NC(=O)N2CCOc3ccc(-c4cccc(C(F)(F)F)c4)nc32)c(C)n1', 'B (EC1.5 1-25 μM)'),
  ('Cc1cc(NC(=O)N2CCCOc3ccc(-c4cccc(N5CCCC5)c4)nc32)cc(C)n1', 'A (EC1.5<1.0 μM)'),
  ('Cc1cc(-c2ccc3c(n2)N(C(=O)Nc2ccncn2)CCCO3)ccn1', 'B (EC1.5 1-25 μM)'),
  ('Cc1cc(NC(=O)N2CCOc3c(C)cc(-c4cccc(C(F)(F)F)c4)nc32)cc(C)n1', 'A (EC1.5<1.0 μM)');

Write down the reported EC1.5 of O=C(Nc1ccncc1)N1CCCOc2ccc(-c3cccc(C(F)(F)F)c3)nc21 , test system: SIRT1 (Homo sapiens, UniProt Q96EB6). B (EC1.5 1-25 μM)

Write down the reported EC1.5 of Cc1cc(NC(=O)N2CCN(C)c3ccc(-c4cccc(C(F)(F)F)c4)nc32)cc(C)n1 , test system: SIRT1 (Homo sapiens, UniProt Q96EB6). B (EC1.5 1-25 μM)

Write down the reported EC1.5 of CN1C(=O)CN(C(=O)Nc2nccs2)c2nc(-c3cccc(C(F)(F)F)c3)ccc21 , test system: SIRT1 (Homo sapiens, UniProt Q96EB6). B (EC1.5 1-25 μM)

Write down the reported EC1.5 of Cc1cc(-c2cccc(C(F)(F)F)c2)nc2c1OCCN2C(=O)Nc1ccncc1 , test system: SIRT1 (Homo sapiens, UniProt Q96EB6). A (EC1.5<1.0 μM)

----------
- SYSTEM TESTED: SIRT1 (Homo sapiens, UniProt Q96EB6)
- EXPERIMENT: Mass spectrometry based assay to identify modulators of SIRT1 activity (deacetylation of p53-based acetylated peptide substrate)
- Type: biochemical
- DETAILS: 25 min, SIRT1 activation, read-out: % FOLD ACT. (percent maximum fold activation)
OBSERVABLE: Emax

INSERT INTO assay_data (compound, system_tested, experimental_result) VALUES
  ('Cc1cccc(NC(=O)N2CCCCc3ccc(-c4cccc(C(F)(F)F)c4)nc32)n1', 'SIRT1 (Homo sapiens, UniProt Q96EB6)', '≤ 200%'),
  ('Cc1cnc(NC(=O)N2CCN(C)c3ccc(-c4cccc(C(F)(F)F)c4)nc32)s1', 'SIRT1 (Homo sapiens, UniProt Q96EB6)', '≤ 200%'),
  ('O=C(Nc1cc(OCC(O)CO)ccn1)N1CCc2ccc(-c3cccc(C(F)(F)F)c3)nc21 (centres unmarked)', 'SIRT1 (Homo sapiens, UniProt Q96EB6)', '> 200%'),
  ('O=C(Nc1ccncc1)N1CCOc2cnc(-c3cccc(Cl)c3)nc21', 'SIRT1 (Homo sapiens, UniProt Q96EB6)', '≤ 200%'),
  ('Cc1csc(NC(=O)N2CCCOc3ccc(-c4cccc(F)c4)nc32)n1', 'SIRT1 (Homo sapiens, UniProt Q96EB6)', '> 200%'),
  ('CCN1C(=O)CCN(C(=O)Nc2cccc(C)n2)c2nc(-c3cccc(Cl)c3)ccc21', 'SIRT1 (Homo sapiens, UniProt Q96EB6)', '≤ 200%'),
  ('Cc1cc(C)nc(NC(=O)N2CCOc3c(C)cc(-c4cccc(Cl)c4)nc32)c1', 'SIRT1 (Homo sapiens, UniProt Q96EB6)', '> 200%');

Please find the next compound below.
Fill in the blank: the reported Emax of Cc1csc(NC(=O)N2CCCc3ccc(-c4cccc(F)c4)nc32)n1 is ____. > 200%
